# TEST_TARGET: T1, recombinant human cardiac troponin T (human, UniProt P45379 2-298)
# T1 construct: In the ECL assay the cTnT came from the Troponin T hs CalSet calibrator; also called cTnT; TnT
# ASSAY_NOTES: SPR (Biacore T200, 37 C), Fab captured, cTnT analyte
# Protocol: Detailed kinetic investigations were performed at 37° C. on a GE Healthcare T200 instrument. A Biacore CM-5 series S sensor was mounted into the instrument and was preconditioned according to the manufacturer's instructions. The system buffer was HBS-ET (10 mM HEPES (pH 7.4), 150 mM NaCl, 1 mM EDTA, 0.05% (w/v) Tween® 20). The sample buffer was the system buffer supplemented with 1 mg/ml CMD (Carboxymethyldextran, Fluka). […]
Form field: t/2-diss (one value per entry).
Write the answer as a number in min, unit excluded.

These solved cases illustrate the format of a correct answer.
BINDER: anti-cTnT Fab mutant 22 (F60W, Y104F) (Fab, V domains shown, also called combination 22) VH: EVQLQQSGPELVKPGASVKMSCKASGYTFTDYYMKWVKQSHGKSLEWIGDINPNNGETWYNQKFKDKATLTVDKSSSTAYMQLNSLTSEDSAVYYCATRVFDFWGQGTTLTVSS VL: DIVLTQSPASLAVSLGQRATISCKASQSVDYDGTSYMNWFQQKAGQPPKRLIYAASNLESGIPARFSGRGSGTDFALNIHPVEEEDAATYYCQQSNEDPYTFGGGTKLEIK
t/2-diss (min): 10
//
BINDER: anti-cTnT Fab mutant 23 (F60W, V101Y + Y104F) (Fab, V domains shown, it was tied to mutant 23 by the printed mutations; also called combination 23) VH: EVQLQQSGPELVKPGASVKMSCKASGYTFTDYYMKWVKQSHGKSLEWIGDINPNNGETWYNQKFKDKATLTVDKSSSTAYMQLNSLTSEDSAVYYCATRYFDFWGQGTTLTVSS VL: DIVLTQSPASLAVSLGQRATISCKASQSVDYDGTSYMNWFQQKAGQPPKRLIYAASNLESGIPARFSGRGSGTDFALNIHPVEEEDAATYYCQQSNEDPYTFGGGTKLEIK
t/2-diss (min): 3

# ---- query binder ----
Sample anti-cTnT Fab mutant 19 (Y104F) (Fab, V domains shown, also called combination 19) VH: EVQLQQSGPELVKPGASVKMSCKASGYTFTDYYMKWVKQSHGKSLEWIGDINPNNGETFYNQKFKDKATLTVDKSSSTAYMQLNSLTSEDSAVYYCATRVFDFWGQGTTLTVSS VL: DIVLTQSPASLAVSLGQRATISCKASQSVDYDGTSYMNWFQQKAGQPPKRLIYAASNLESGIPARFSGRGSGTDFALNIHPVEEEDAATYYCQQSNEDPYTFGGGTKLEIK ; t/2-diss observed: 8
